target: T1, recombinant glutathione-S-transferase (GST)–Actn4 fusion protein (human, UniProt O43707 1-911)
T1 construct: also called Actn4-GST; source: recombinant, purified
T1 sequence (O43707 whole entry, the tested form may be a part): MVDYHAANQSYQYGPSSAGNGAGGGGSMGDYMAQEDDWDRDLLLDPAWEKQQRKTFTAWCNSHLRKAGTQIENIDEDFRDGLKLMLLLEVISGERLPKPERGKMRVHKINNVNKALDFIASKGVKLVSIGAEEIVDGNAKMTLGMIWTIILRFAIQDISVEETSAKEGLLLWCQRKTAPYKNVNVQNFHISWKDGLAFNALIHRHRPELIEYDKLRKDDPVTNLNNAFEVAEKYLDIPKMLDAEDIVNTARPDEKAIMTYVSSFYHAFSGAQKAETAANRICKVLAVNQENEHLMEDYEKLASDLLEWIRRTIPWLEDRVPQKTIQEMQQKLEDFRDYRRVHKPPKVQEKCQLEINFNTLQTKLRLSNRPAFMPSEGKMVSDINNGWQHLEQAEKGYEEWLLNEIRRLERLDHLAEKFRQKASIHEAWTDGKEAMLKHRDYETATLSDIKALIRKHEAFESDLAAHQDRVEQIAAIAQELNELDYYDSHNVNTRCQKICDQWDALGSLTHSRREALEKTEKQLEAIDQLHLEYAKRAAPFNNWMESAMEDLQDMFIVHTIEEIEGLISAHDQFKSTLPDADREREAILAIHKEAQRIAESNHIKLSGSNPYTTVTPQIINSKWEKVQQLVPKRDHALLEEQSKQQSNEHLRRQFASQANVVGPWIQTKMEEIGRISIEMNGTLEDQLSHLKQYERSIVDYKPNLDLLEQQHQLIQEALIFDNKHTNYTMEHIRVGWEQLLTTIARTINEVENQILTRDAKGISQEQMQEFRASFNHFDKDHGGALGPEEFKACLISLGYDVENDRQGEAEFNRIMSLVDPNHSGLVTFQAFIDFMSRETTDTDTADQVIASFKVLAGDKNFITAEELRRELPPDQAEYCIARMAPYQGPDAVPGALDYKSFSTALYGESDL
test-summary: SPR; BIAcore T200, biotinylated peptides captured on streptavidin chip (630 RU CD147, 286 RU CD44), GST fusions as analytes, non-reducing buffer (PBS, 0.02% Tween-20), 25 μl/min, 60 s association, 60 s dissociation
reported-conditions: both partners purified
No end group written: not given here. *: point of attachment. Biotin = O=C1N[C@H]2[C@H](CS[C@H]2CCCCC(=O)*)N1
reported-metric: pKd
Remember, pKd is on a log scale: it is -log10 of the molar concentration.

| binder | result-number |
| --- | --- |
| Biotin-AYDKRRKPEDVLDDDDAGSAPLKSSGQHQNDKGKNVRQRNSS (also called CD147-CT; CD147 peptide; source: synthetic peptide, bought: ProteoGenix) [biotinylated peptide encoding the cytosolic sequence of CD147] | 8.40 |

# evaluate next
Problem: Which pKd is listed for Biotin-NSRRRCGQKKKLVINSG (also called cytosolic tail of CD44; juxta-membrane cytosolic portion of CD44; source: synthetic peptide, bought: ProteoGenix) [biotinylated peptide of the juxta-membrane region of CD44] ?
Result: 6.80

Reference source for all entries: paper PMC5461506
